Experiment: Quality of sweetness: sensory attributes scored on a 15-point unstructured line scale
Type: in vivo
Design: key: scores on a 15-point unstructured line scale
Conditions: mean score, 15-point line scale, two replications, room temperature
Recorded Metallic Aftertaste for the following compounds
reported.property: Metallic Aftertaste

1) CC1(C(=O)OC2OC(CO)C(O)C(O)C2O)CCCC2(C)C3CCC4(OC5OC(CO)C(O)C(OC6OC(CO)C(O)C(O)C6O)C5OC5OC(CO)C(O)C(O)C5O)CC3(CCC12)CC4(C)O (stereo not drawn) [Derivative Product 1 (II)]
0.67
2) CC1=CC23CCC4C(C)(C(=O)O)CCCC4(C)C2CCC1(OC1OC(CO)C(O)C(OC2OC(CO)C(O)C(O)C2O)C1OC1OC(CO)C(O)C(O)C1O)C3 (stereo not drawn) [Derivative Product 4 (V)]
0.63
3) OC[C@H]1O[C@@](CO)(O[C@H]2O[C@H](CO)[C@@H](O)[C@H](O)[C@H]2O)[C@@H](O)[C@@H]1O [Sucrose, sucrose, reference compound]
0.67

The measurements presented in this section are drawn from patent US9115166B2.
